# Tested on: Ba/F3 P210-BCR-ABL1 RUNX1-/mut (mouse)
# experimental details: drug sensitivity score (DSS) (DSS score); higher = more sensitive (stronger growth inhibition); extreme values may be limits of the assay

compound | drug sensitivity score
CCCC(CCC)C(=O)O | 0.75
Cc1nc(-c2cn3c(n2)-c2ccc(-c4cnn(C(C)(C)C(N)=O)c4)cc2OCC3)n(C(C)C)n1 | 3.1
C[C@@H](Nc1cc(F)cc(F)c1)c1cc(C(=O)N(C)C)cc2c(=O)cc(N3CCOCC3)oc12 | 0.5
COc1cc(CCc2cc(NC(=O)c3ccc(N4CC(C)NC(C)C4)cc3)n[nH]2)cc(OC)c1 (stereo not given) | 0
CC1=C(/C=C/C(C)=C/C=C/C(C)=C/C(=O)O)C(C)(C)CCC1 | 2.95
Cc1c(-c2ccc(N3CCc4cccc(C(=O)Nc5nc6ccccc6s5)c4C3)nc2C(=O)O)cnn1CC12CC3CC(CC(C3)C1)C2 | 0
CC(C)(C)c1nc(-c2cccc(NS(=O)(=O)c3c(F)cccc3F)c2F)c(-c2ccnc(N)n2)s1 | 0.05
CC(C)Oc1ccc(C(=O)N[C@H](CNC(=O)CN(C)C)Cc2ccc(-c3cn4cccc([C@H](C)O)c4n3)cc2)cc1Cl | 7.5
COc1cc2c(Oc3ccc(NC(=O)C4(C(=O)Nc5ccc(F)cc5)CC4)cc3F)ccnc2cc1OCCCN1CCOCC1 | 5.65
Cc1sc2c(c1C)C(c1ccc(Cl)cc1)=N[C@@H](CC(=O)NCCCCNC(=O)COc1cccc3c1C(=O)N(C1CCC(=O)NC1=O)C3=O)c1nnc(C)n1-2 (stereo not given in full) | 19.1
CCNCCS(=O)(=O)NC[C@@]1(c2ccccc2)SC(NC(=O)C(C)(C)C)=NN1C(=O)C(C)(C)C | 21.5
COC(=O)N[C@@H](C)CNc1nccc(-c2cn(C(C)C)nc2-c2cc(Cl)cc(NS(C)(=O)=O)c2F)n1 | 2.15
COCCOc1cnc2ccn([C@H](C)c3nnc4c(F)cc(-c5cnn(C)c5)cn34)c(=O)c2c1 | 0
O=C1Cc2cc(C(=O)NC3C[C@H]4CC[C@@H](C3)N4S(=O)(=O)CC3CCN(CCCC(F)(F)F)CC3)c(Cl)cc2N1 (stereo not given in full) | 0.05
CN(C)c1cc2c(cc1Sc1nc3c(N)nccc3n1CCNCC(C)(C)C)OCO2 | 16.9

###

# Tested on: Ba/F3 P210-BCR-ABL1 RUNX1wt/wt control (mouse)
# experimental details: drug sensitivity score (DSS) (DSS score); higher = more sensitive (stronger growth inhibition); extreme values may be limits of the assay

molecule | drug sensitivity score
COc1cc2ncnc(Nc3cccc(Cl)c3F)c2cc1OC(=O)N1CCN(C)C[C@H]1C [AZD3759] | 0
O=C(/C=C/c1cccc(S(=O)(=O)Nc2ccccc2)c1)NO [Belinostat] | 19.1
O=C(Nc1cnn2ccc(N3CCC[C@@H]3c3cc(F)ccc3F)nc12)N1CC[C@H](O)C1 [Larotrectinib] | 0.7
CCC(C)n1ncn(-c2ccc(N3CCN(c4ccc(OCC5COC(Cn6cncn6)(c6ccc(Cl)cc6Cl)O5)cc4)CC3)cc2)c1=O (stereo not drawn) [Itraconazole] | 7.1
COc1cc(CCc2cc(NC(=O)c3ccc(N4CC(C)NC(C)C4)cc3)n[nH]2)cc(OC)c1 (stereo not drawn) [AZD4547] | 0
CN1CCN(C2CCC(n3cc(-c4ccc(Oc5ccccc5)cc4)c4c(N)ncnc43)CC2)CC1 (stereo not drawn) | 16.6
O=C(c1ccc(F)c(F)c1Nc1ccc(I)cc1F)N1CC(O)([C@@H]2CCCCN2)C1 [Cobimetinib] | 0
NCC(=O)Nc1ccc(-n2nc(C(F)(F)F)cc2-c2ccc3c(ccc4ccccc43)c2)cc1 | 0

###

# System: Mye-BP RUNX1 p.R162K
# experimental details: drug sensitivity score (DSS) (DSS score); higher = more sensitive (stronger growth inhibition); extreme values may be limits of the assay
drug sensitivity score: recorded values
readout: drug sensitivity score

compound | result number
C#Cc1cccc(Nc2ncnc3cc(OC)c(OCCCCCCC(=O)NO)cc23)c1 | 20.5
O=C(O)CCCc1ccc(N(CCCl)CCCl)cc1 | 0.744
O=C1c2c(O)ccc(O)c2C(=O)c2c(NCCNCCO)ccc(NCCNCCO)c21 | 7.19
O=NN(CCCl)C(=O)NCCCl | 0
Nc1nc(Cl)nc2c1ncn2[C@H]1C[C@H](O)[C@@H](CO)O1 | 17.3
CN(C)CCN1C(=O)c2cccc3cc(N)cc(c23)C1=O [Amonafide] | 9.35
CCCCC(=O)OCC(=O)[C@]1(O)Cc2c(O)c3c(c(O)c2[C@@H](O[C@H]2C[C@H](NC(=O)C(F)(F)F)[C@H](O)[C@H](C)O2)C1)C(=O)c1c(OC)cccc1C3=O | 19.1
Cc1ccc(-c2cc(C(F)(F)F)nn2-c2ccc(S(N)(=O)=O)cc2)cc1 | 0.0478

###

# System: Ba/F3 P210-BCR-ABL1 RUNX1-/mut (mouse)
# experimental details: drug sensitivity score (DSS) (DSS score); higher = more sensitive (stronger growth inhibition); extreme values may be limits of the assay
Reported drug sensitivity score by item:
readout: drug sensitivity score

molecule | study target | readout | result number
O=C1CCC(N2C(=O)c3ccccc3C2=O)C(=O)N1 (stereo not drawn) [Thalidomide] | Ba/F3 P210-BCR-ABL1 RUNX1-/mut (mouse) | drug sensitivity score | 2.9
O=C1CCc2c(Oc3ccc4c(c3)[C@@H]3[C@H](O4)[C@H]3c3nc4cc(C(F)(F)F)ccc4[nH]3)ccnc2N1 [BGB-283] | Ba/F3 P210-BCR-ABL1 RUNX1-/mut (mouse) | drug sensitivity score | 16.9
CC[C@H](CO)Nc1nc(NCc2ccccc2)c2ncn(C(C)C)c2n1 [Seliciclib] | Ba/F3 P210-BCR-ABL1 RUNX1-/mut (mouse) | drug sensitivity score | 0.4
C[C@@H]1CN(CC(=O)Nc2ccc3c(c2)Cc2cccc(-c4cc(=O)cc(N5CCOCC5)o4)c2S3)C[C@H](C)O1 | Ba/F3 P210-BCR-ABL1 RUNX1-/mut (mouse) | drug sensitivity score | 5.3
C=CC(=O)Nc1cc(Nc2nccc(-c3cn(C)c4ccccc34)n2)c(OC)cc1N(C)CCN(C)C [Osimertinib] | Ba/F3 P210-BCR-ABL1 RUNX1-/mut (mouse) | drug sensitivity score | 5.6
CCc1cc2c(cc1N1CCC(N3CCOCC3)CC1)C(C)(C)c1[nH]c3cc(C#N)ccc3c1C2=O [Alectinib] | Ba/F3 P210-BCR-ABL1 RUNX1-/mut (mouse) | drug sensitivity score | 0.7
Cc1c(F)cc(C(=O)NC2CC2)cc1-c1ccc(C(=O)NCC(C)(C)C)cn1 [Losmapimod] | Ba/F3 P210-BCR-ABL1 RUNX1-/mut (mouse) | drug sensitivity score | 1.8
C=C(c1ccc(C(=O)O)cc1)c1cc2c(cc1C)C(C)(C)CCC2(C)C [Bexarotene] | Ba/F3 P210-BCR-ABL1 RUNX1-/mut (mouse) | drug sensitivity score | 6.95

###

# Test system: Ba/F3 P210-BCR-ABL1 RUNX1wt/wt control (mouse)
# experimental details: drug sensitivity score (DSS) (DSS score); higher = more sensitive (stronger growth inhibition); extreme values may be limits of the assay

compound | drug sensitivity score
O=C(O)c1ccc(-c2c[nH]c3ncc(-c4ccccc4)cc23)cc1C1CCCC1 | 0.85
O=C(O)CC[C@H]1CC[C@@](c2cc(F)ccc2F)(S(=O)(=O)c2ccc(Cl)cc2)CC1 | 0
CN[C@@H]1C[C@H]2O[C@@](C)([C@@H]1OC)n1c3ccccc3c3c4c(c5c6ccccc6n2c5c31)C(=O)N[C@H]4O | 17.1
CN(C)C(=O)c1ccc(S(=O)(=O)c2ccc(NC(=O)[C@@](C)(O)C(F)(F)F)c(Cl)c2)cc1 | 0
COc1cccc2c1C(=O)c1c(O)c3c(c(O)c1C2=O)C[C@@](O)(C(=O)CO)C[C@@H]3O[C@H]1C[C@H](N)[C@@H](O)[C@H](C)O1 [Epirubicin] | 13.1
NC(=O)c1cccc(-c2cccc(OC(=O)NC3CCCCC3)c2)c1 | 0.05
C1=N/C2=N/c3ccc(OCCN4CCCC4)c(c3)COC/C=C/COCc3cccc(c3)C(=C1)N2 | 7

###

# System: Ba/F3 P210-BCR-ABL1 RUNX1wt/wt control (mouse)
# experimental details: drug sensitivity score (DSS) (DSS score); higher = more sensitive (stronger growth inhibition); extreme values may be limits of the assay
Note to self: values exactly at 3 are Condition met. So drug sensitivity score at or above 3 is Condition met, below is Condition not met.

compound | class name
CCNc1nc(Nc2cc(F)c(C(=O)N3CCOCC3)cc2OC)ncc1C(F)(F)F [GNE-7915] | Condition not met
Cc1ccc(C(=O)Nc2ccc(CN3CCN(C)CC3)c(C(F)(F)F)c2)cc1C#Cc1cnc2cccnn12 [Ponatinib] | Condition met
c1cn2cc(-c3ccc4cn[nH]c4c3)nc(Nc3ccc(N4CCOCC4)cc3)c2n1 [Entospletinib] | Condition not met
CO[C@@H](C(=O)N1Cc2[nH]nc(NC(=O)c3ccc(N4CCN(C)CC4)cc3)c2C1)c1ccccc1 [Danusertib] | Condition met
Cc1cc2c(C(=O)NC[C@H](C)c3ccccc3)c(O)c(O)cc2c(O)c1-c1c(C)cc2c(C(=O)NC[C@H](C)c3ccccc3)c(O)c(O)cc2c1O [Sabutoclax] | Condition met
